These entries and their values trace back to patent US20240308995A1.

molecular target: Recombinant full length human OGA enzyme (Homo sapiens (Human), UniProt O60502); test: OGA Enzyme Inhibition Biochemical Assay; settings: 1 nM OGA, 100 μM 4-MUGlcNAc, pH 6.4
Sequence (O60502 whole entry): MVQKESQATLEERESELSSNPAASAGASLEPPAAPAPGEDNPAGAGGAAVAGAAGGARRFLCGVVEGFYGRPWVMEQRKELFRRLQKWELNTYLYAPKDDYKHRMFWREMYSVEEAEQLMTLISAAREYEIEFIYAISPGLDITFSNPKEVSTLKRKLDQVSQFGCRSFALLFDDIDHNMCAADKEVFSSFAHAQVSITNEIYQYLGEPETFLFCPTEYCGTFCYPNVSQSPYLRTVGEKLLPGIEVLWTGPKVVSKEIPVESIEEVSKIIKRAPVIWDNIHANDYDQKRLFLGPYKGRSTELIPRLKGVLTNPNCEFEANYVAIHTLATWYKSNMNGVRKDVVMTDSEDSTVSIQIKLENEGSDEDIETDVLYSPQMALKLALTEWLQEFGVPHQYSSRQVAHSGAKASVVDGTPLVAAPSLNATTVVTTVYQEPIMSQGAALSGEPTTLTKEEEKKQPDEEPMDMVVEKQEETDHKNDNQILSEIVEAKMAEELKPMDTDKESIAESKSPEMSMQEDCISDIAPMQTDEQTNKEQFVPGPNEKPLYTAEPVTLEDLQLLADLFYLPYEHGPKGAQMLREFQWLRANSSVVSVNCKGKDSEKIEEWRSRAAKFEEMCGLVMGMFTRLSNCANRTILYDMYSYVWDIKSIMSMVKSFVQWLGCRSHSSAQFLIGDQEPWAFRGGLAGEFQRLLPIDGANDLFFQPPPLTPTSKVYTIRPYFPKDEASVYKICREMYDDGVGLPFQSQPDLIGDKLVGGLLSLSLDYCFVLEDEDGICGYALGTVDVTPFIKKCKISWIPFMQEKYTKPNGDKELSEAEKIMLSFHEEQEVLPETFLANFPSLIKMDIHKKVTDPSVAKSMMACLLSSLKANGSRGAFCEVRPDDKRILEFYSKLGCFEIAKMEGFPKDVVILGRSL
QUANTITY_MEASURED: pIC50
Remember the convention: pIC50 equals -log10 of concentration in molar.

>>> value_observed("CC(=O)Nc1ncc(CN2C[C@@H](Oc3ccc(F)cn3)C[C@@H]2C)s1")
7.41

Please examine the following record next.
What value of measured pIC50 is listed for "CC(=O)Nc1ncc(CN2C[C@H](Oc3cc(OC(C)C)ncn3)C[C@@H]2C)s1" ?
8.72

====

target: Recombinant full length human OGA enzyme (Homo sapiens (Human)); test: OGA Enzyme Inhibition Biochemical Assay; conditions: 1 nM OGA, 100 μM 4-MUGlcNAc, pH 6.4
QUANTITY_MEASURED: pIC50
Please treat pIC50 as minus the base-10 logarithm of the molar concentration.

>>> value_observed("CC(=O)Nc1nc(F)c(CN2C[C@H](Oc3cnc(C(F)F)cn3)C[C@@H]2C)s1")
8.68
>>> value_observed("CC(=O)Nc1nc(F)c(CN2C[C@H](Oc3cc(C)ncc3C)C[C@@H]2C)s1")
8.77
>>> value_observed("CC(=O)Nc1ncc(CN2C[C@H](Oc3ccc(F)cn3)CC[C@@H]2C)s1")
8.92
>>> value_observed("CC(=O)Nc1nc(F)c(CN2CCC[C@H](Oc3cc(C)nc(C)c3)C2)s1")
7.96

Notebook: pull reported pIC50 for Recombinant full length human OGA enzyme (Homo sapiens (Human)), entry "CC(=O)Nc1ncc(CN2C[C@H](Oc3cc(C(F)F)ncn3)C[C@@H]2C)s1"
8.62

Quick check: pIC50 on Recombinant full length human OGA enzyme (Homo sapiens (Human)), item "CC(=O)Nc1ncc(CN2C[C@H](Oc3ccc(C(F)F)cn3)C[C@@H]2C)s1" ?
8.96

Which pIC50 is reported with Recombinant full length human OGA enzyme (Homo sapiens (Human)) for this entry: "CC(=O)Nc1ncc(CN2CC[C@@H](Oc3cc(C)nc(C)c3)C2)s1" ?
8.72

Record "COc1cc(O[C@@H]2C[C@H](C)N(Cc3sc(NC(C)=O)nc3Cl)C2)ncn1" : what is its pIC50 with Recombinant full length human OGA enzyme (Homo sapiens (Human))?
9.00

// fetch Recombinant full length human OGA enzyme (Homo sapiens (Human)) pIC50 for "CC(=O)Nc1ncc(CN2C[C@@H](Oc3cc(C)nc(C)c3)C[C@@H]2C)s1"
7.59

Which pIC50 is reported with Recombinant full length human OGA enzyme (Homo sapiens (Human)) for this entry: "CC(=O)Nc1ncc(CN2CCC[C@@H](Oc3cc(C)nc(C)c3)C2)s1" ?
8.68

State its pIC50 on Recombinant full length human OGA enzyme (Homo sapiens (Human)): "CC(=O)Nc1ncc(CN2C[C@H](Oc3ncc(OC(F)F)cn3)C[C@@H]2C)s1"
8.92

Find the measured pIC50: item "CC(=O)Nc1nc(F)c(CN2C[C@@H](Oc3cc(C)nc(C)c3)C[C@@H]2C)s1" , target or system Recombinant full length human OGA enzyme (Homo sapiens (Human)).
7.48
